- System: MET-amplified gastric cancer cell line GTL-16
- test method notes: GTL-16 proliferation assay (MTS)
- Type: cell-based
- run conditions: Homo sapiens, GTL-16 cells, 72 h incubation
Answer each item with its documented pIC50.
One number for each entry, as −log10 of the molar value.

# annotated cases, reported pIC50 shown
compound: CC(=O)N1CCN(c2ccc3ncc(C(C)c4cc5cccnc5cc4F)n3n2)CC1 (racemic)
measured: 6.71

compound: CC(c1c(F)cc2ncccc2c1F)c1cnc2ccc(N3CCN(c4ccccc4)C(=O)C3)nn12 (racemic)
measured: 7.82

compound: CC(c1ccc2ncccc2c1F)c1cnc2ccc(N3CCN(C)C(=O)C3)nn12 (racemic)
measured: 7.33

compound: CC(=O)N1CCN(c2ccc3ncc(C(C)c4c(F)cc5ncccc5c4F)n3n2)CC1 (racemic)
measured: 7.84

Lab note: each compound below needs its pIC50 filled in.
1. C[C@@H](c1c(F)cc2ncccc2c1F)c1cnc2ccc(N3CCN(C)CC3)nn12
2. CC(c1cc2cccnc2cc1F)c1cnc2ccc(N3CCN(C)C(=O)C3)nn12 (racemic)
3. C[C@@H](c1c(F)cc2ncccc2c1F)c1cnc2ccc(N3CCNC(=O)[C@H]3C)nn12
4. CC(c1c(F)cc2ncccc2c1F)c1cnc2ccc(N3CCNCC3)nn12 (racemic)

[8.00, 6.83, 8.25, 7.94]

====

- test method notes: Solubility assay at pH 7 and in FaSSIF
- Assay type: physicochemical
- run conditions: aqueous buffer, thermodynamic from solid; phosphate buffer pH 7, stirred over night at room temperature; read-out: Solubility Buffer pH 7
Answer each item with its documented solubility.
Form field: result (number plus unit)

# annotated cases, reported solubility shown
compound: C[C@@H](c1cc2cnn(C)c2cc1F)c1cnc2ccc(N3CCNC(=O)C3)nn12 [Example 28]
measured: 117 µg/mL
--
compound: C[C@@H](c1c(F)cc2ncccc2c1F)c1cnc2ccc(N3CCN(C)C(=O)C3)nn12 [Example 2]
measured: 29 µg/mL

Lab note: each compound below needs its solubility filled in.
1. C[C@@H](c1c(F)cc2ncccc2c1F)c1cnc2ccc(N3CCNCC3)nn12 [Example 7]
2. CC(=O)N1CCN(c2ccc3ncc([C@@H](C)c4c(F)cc5ncccc5c4F)n3n2)CC1 [Example 11]
3. C[C@@H](c1c(F)cc2ncccc2c1F)c1cnc2ccc(N3CCNC(=O)C3)nn12 (single isomer, unassigned) [Example 5]

1. 248 µg/mL
2. 32 µg/mL
3. 91 µg/mL

====

- system name: c-Met (Homo sapiens, UniProt P08581)
- Construct: adapted to measure the phosphorylation of endogenous cellular proteins in cell lysates; endogenous in cells
- Sequence (P08581 25-1390): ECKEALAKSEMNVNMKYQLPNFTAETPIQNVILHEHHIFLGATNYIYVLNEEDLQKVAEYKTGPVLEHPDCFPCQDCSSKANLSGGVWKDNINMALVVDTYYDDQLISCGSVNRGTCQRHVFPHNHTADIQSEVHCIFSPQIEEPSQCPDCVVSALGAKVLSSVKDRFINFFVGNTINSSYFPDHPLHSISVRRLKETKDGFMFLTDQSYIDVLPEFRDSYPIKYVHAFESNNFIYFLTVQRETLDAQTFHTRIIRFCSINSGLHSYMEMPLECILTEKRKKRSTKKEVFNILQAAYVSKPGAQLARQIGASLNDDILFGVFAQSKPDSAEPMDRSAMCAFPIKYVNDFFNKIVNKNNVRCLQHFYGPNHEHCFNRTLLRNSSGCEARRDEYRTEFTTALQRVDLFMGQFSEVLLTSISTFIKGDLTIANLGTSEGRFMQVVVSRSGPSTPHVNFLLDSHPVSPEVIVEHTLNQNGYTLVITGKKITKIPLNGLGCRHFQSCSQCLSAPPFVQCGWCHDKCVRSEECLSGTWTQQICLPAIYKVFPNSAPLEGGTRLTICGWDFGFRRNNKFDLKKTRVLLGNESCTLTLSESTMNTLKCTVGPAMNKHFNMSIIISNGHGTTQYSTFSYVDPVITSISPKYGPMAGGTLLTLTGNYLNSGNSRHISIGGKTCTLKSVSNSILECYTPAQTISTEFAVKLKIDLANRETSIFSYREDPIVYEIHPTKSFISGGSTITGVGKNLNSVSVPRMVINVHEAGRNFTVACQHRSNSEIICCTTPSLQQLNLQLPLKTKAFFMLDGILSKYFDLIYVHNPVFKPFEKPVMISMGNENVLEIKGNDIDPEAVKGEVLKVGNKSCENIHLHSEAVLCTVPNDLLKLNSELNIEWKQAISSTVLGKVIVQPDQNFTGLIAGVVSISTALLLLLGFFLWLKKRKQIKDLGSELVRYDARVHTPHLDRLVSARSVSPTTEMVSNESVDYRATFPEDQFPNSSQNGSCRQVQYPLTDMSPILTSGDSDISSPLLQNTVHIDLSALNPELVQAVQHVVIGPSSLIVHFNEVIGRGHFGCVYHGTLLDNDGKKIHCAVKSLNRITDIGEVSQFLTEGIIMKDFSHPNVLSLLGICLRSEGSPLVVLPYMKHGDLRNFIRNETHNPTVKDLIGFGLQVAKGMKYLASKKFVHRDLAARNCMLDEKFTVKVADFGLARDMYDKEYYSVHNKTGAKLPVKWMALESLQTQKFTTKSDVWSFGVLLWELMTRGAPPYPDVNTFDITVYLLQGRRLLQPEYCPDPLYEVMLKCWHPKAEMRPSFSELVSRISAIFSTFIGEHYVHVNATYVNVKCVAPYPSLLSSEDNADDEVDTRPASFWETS
- test method notes: GTL-16 c-Met autophosphorylation measured by AlphaScreen detection
- run conditions: GTL-16 cells, 1 h incubation, AlphaScreen p-c-Met; read-out: GTL-16 IC50 c-Met phosphorylation
Answer each item with its documented pIC50.
Numbers only, as −log10 of the molar value.

molecule: CC(c1c(F)cc2c(cnn2C)c1F)c1cnc2ccc(N3CCNC(=O)C3)nn12 (racemic) [Example 51]
pIC50: 8.10

Turning now to a further record.
Field pIC50 (entry CC(c1c(F)cc2ncccc2c1F)c1cnc2ccc(N3CCN(c4ccccn4)C(=O)C3)nn12 (racemic) [Example 25] ) reads 8.10

====

// each record: one item and its IC50 for c-Met receptor tyrosine kinase, GST-c-Met(969-1390) (Homo sapiens, UniProt P08581)
Form field: result (number plus unit)

# annotated cases, reported IC50 shown
compound: CC(c1c(F)cc2c(cnn2C)c1F)c1cnc2ccc(N3CCNC(=O)C3)nn12 (racemic)
IC50: 22 nM
--
compound: CN1CCN(c2ccc3ncc(Cc4c(F)cc5ncccc5c4F)n3n2)CC1
IC50: 14 nM

Turning now to a further record.
Field IC50 (entry C[C@@H](c1cc2cnn(C)c2cc1F)c1cnc2ccc(N3CCN(C)C(=O)C3)nn12 ) reads 26 nM

These data points were gathered from patent US8389526B2.
